Assay: Phase I study CXR1002-001: plasma pharmacokinetics (LC-MS/MS)
Format: in vivo, human
Conditions: human, plasma, po, 1200 mg, Patient 037, 1200 mg weekly oral dose, Time 360 hr (Day 16); read-out: Concentration (plasma level)
Experimental readout: concentration at 360 h (µM)
Numbers only, in µM.

Memo: O=C(O)C(F)(F)C(F)(F)C(F)(F)C(F)(F)C(F)(F)C(F)(F)C(F)(F)F , reported concentration at 360 h: 1140

----------
Assay: Phase I study CXR1002-001: plasma pharmacokinetics (LC-MS/MS)
Assay type: in vivo, human
Details: human, plasma, oral, 300 mg, Patient 012 Dose 300 mg; 4 hr; read-out: Concentration
Experimental readout: concentration at 4 h (µM)
One number for each entry, in µM.

Memo: O=C(O)C(F)(F)C(F)(F)C(F)(F)C(F)(F)C(F)(F)C(F)(F)C(F)(F)F , reported concentration at 4 h: 123

----------
Assay: Phase I study CXR1002-001: plasma pharmacokinetics (LC-MS/MS)
Type: in vivo, human
Conditions: human, plasma, oral, 600 mg, Patient 022, 600 mg, person, plasma, 168 hr (Day 8); read-out: Concentration
From the text: PK samples, PD (fasting) samples, blood glucose, and blood triglyceride samples, were taken over a 6-week period. Dose limiting toxicity (DLT) will be based on the toxicity assessments over the first 3-week period of the repeat dosing schedule. […]
Experimental readout: concentration at 168 h (µM)
Give bare numbers, in µM.

Memo: O=C(O)C(F)(F)C(F)(F)C(F)(F)C(F)(F)C(F)(F)C(F)(F)C(F)(F)F [CXR1002] , reported concentration at 168 h: 143

----------
Assay: Phase I study CXR1002-001: plasma pharmacokinetics (LC-MS/MS)
Type: in vivo, human
Conditions: human, plasma, oral, 600 mg, Patient 022, 600 mg, person, plasma, 506 hr; read-out: Concentration
Experimental readout: concentration at 506 h (µM)
Answers are plain numbers, in µM.

Memo: O=C(O)C(F)(F)C(F)(F)C(F)(F)C(F)(F)C(F)(F)C(F)(F)C(F)(F)F [CXR1002] , reported concentration at 506 h: 441

----------
Experiment: Phase I study CXR1002-001: plasma pharmacokinetics (LC-MS/MS)
Type: in vivo, human
Settings: human, plasma, oral, 100 mg, Patient 005 Dose 100 mg; 844 hr; read-out: Concentration
Experimental readout: concentration at 844 h (µM)
Answers are plain numbers, in µM.

Memo: O=C(O)C(F)(F)C(F)(F)C(F)(F)C(F)(F)C(F)(F)C(F)(F)C(F)(F)F , reported concentration at 844 h: 91.4

----------
Assay: Phase I study CXR1002-001: plasma pharmacokinetics (LC-MS/MS)
Format: in vivo, human
Conditions: human, plasma, oral, 300 mg, Patient 014 Dose 300 mg; 4 hr; read-out: Concentration
Experimental readout: concentration at 4 h
Lab note: write values as number then unit, every time.

Memo: O=C(O)C(F)(F)C(F)(F)C(F)(F)C(F)(F)C(F)(F)C(F)(F)C(F)(F)F , reported concentration at 4 h: 100 µM

----------
Assay: Phase I study CXR1002-001: plasma pharmacokinetics (LC-MS/MS)
Format: in vivo, human
Conditions: human, plasma, oral, 50 mg, Patient 003 Dose 50 mg; 192 hr (Day 8); read-out: Concentration
Experimental readout: concentration at 192 h (µM)
Numbers only, in µM.

Memo: O=C(O)C(F)(F)C(F)(F)C(F)(F)C(F)(F)C(F)(F)C(F)(F)C(F)(F)F , reported concentration at 192 h: 8.6

----------
Assay: Phase I study CXR1002-001: plasma pharmacokinetics (LC-MS/MS)
Type: in vivo, human
Details: human, plasma, oral, 1200 mg, Patient 033, 1200 mg, person, plasma, 168 hr (Day 8); read-out: Concentration
Experimental readout: concentration at 168 h (µM)
One number for each entry, in µM.

Memo: O=C(O)C(F)(F)C(F)(F)C(F)(F)C(F)(F)C(F)(F)C(F)(F)C(F)(F)F [CXR1002] , reported concentration at 168 h: 317

----------
Assay: Phase I study CXR1002-001: plasma pharmacokinetics (LC-MS/MS)
Assay type: in vivo, human
Settings: human, plasma, oral, 200 mg, Patient 010 Dose 200 mg; 0 hr
Experimental readout: concentration at 0 h (nM)
Give bare numbers, in nM.

Memo: O=C(O)C(F)(F)C(F)(F)C(F)(F)C(F)(F)C(F)(F)C(F)(F)C(F)(F)F , reported concentration at 0 h: 0

----------
Test: Phase I study CXR1002-001: plasma pharmacokinetics (LC-MS/MS)
Type: in vivo, human
Details: human, plasma, oral, 1200 mg, Patient 033, 1200 mg, person, plasma, 339 hr; read-out: Concentration
Description: PK samples, PD (fasting) samples, blood glucose, and blood triglyceride samples, were taken over a 6-week period. Dose limiting toxicity (DLT) will be based on the toxicity assessments over the first 3-week period of the repeat dosing schedule. […]
Experimental readout: concentration at 339 h (µM)
Answers are plain numbers, in µM.

Memo: O=C(O)C(F)(F)C(F)(F)C(F)(F)C(F)(F)C(F)(F)C(F)(F)C(F)(F)F [CXR1002] , reported concentration at 339 h: 841

----------
Assay: Phase I study CXR1002-001: plasma pharmacokinetics (LC-MS/MS)
Assay type: in vivo, human
Conditions: human, plasma, oral, 1000 mg, Patient 040, 1000 mg, person, plasma, 506 hr; read-out: Concentration
Experimental readout: concentration at 506 h (µM)
Answers are plain numbers, in µM.

Memo: O=C(O)C(F)(F)C(F)(F)C(F)(F)C(F)(F)C(F)(F)C(F)(F)C(F)(F)F [CXR1002] , reported concentration at 506 h: 502

----------
Experiment: Phase I study CXR1002-001: plasma pharmacokinetics (LC-MS/MS)
Format: in vivo, human
Details: human, plasma, oral, 300 mg, Patient 014 Dose 300 mg; 340 hr; read-out: Concentration
Experimental readout: concentration at 340 h
Lab note: write values as number then unit, every time.

Memo: O=C(O)C(F)(F)C(F)(F)C(F)(F)C(F)(F)C(F)(F)C(F)(F)C(F)(F)F , reported concentration at 340 h: 261 µM

----------
System: CaCo-2
Assay: ATP depletion cytotoxicity assay 48 hr
Type: cell-based, human
Conditions: Homo sapiens, Caco-2, 48 h, Example 7; 48 hour; CaCO2; CXR1002 0-1 mM, U0126 fixed 10 μM where combined; read-out: IC50
Experimental readout: IC50 (µM)
Give bare numbers, in µM.

Lab note: compound O=C(O)C(F)(F)C(F)(F)C(F)(F)C(F)(F)C(F)(F)C(F)(F)C(F)(F)F [CXR1002] tested on CaCo-2; recorded IC50 was 704

----------
Assay: Phase I study CXR1002-001: plasma pharmacokinetics (LC-MS/MS)
Assay type: in vivo, human
Conditions: human, plasma, oral, 750 mg, Patient 027, 750 mg, person, plasma, 674 hr; read-out: Concentration
Excerpt: PK samples, PD (fasting) samples, blood glucose, and blood triglyceride samples, were taken over a 6-week period. Dose limiting toxicity (DLT) will be based on the toxicity assessments over the first 3-week period of the repeat dosing schedule. […]
Experimental readout: concentration at 674 h (µM)
One number for each entry, in µM.

Memo: O=C(O)C(F)(F)C(F)(F)C(F)(F)C(F)(F)C(F)(F)C(F)(F)C(F)(F)F , reported concentration at 674 h: 769

----------
Experiment: Phase I study CXR1002-001: plasma pharmacokinetics (LC-MS/MS)
Format: in vivo, human
Conditions: human, plasma, po, 1000 mg, Patient 042, 1000 mg weekly oral dose, Time 340 hr; read-out: Concentration (plasma level)
Experimental readout: concentration at 340 hr (µM)
Give bare numbers, in µM.

Memo: O=C(O)C(F)(F)C(F)(F)C(F)(F)C(F)(F)C(F)(F)C(F)(F)C(F)(F)F , reported concentration at 340 hr: 636

----------
Experiment: Phase I study CXR1002-001: plasma pharmacokinetics (LC-MS/MS)
Format: in vivo, human
Details: human, plasma, oral, 50 mg, Patient 004 Dose 50 mg; 674 hr; read-out: Concentration
Experimental readout: concentration at 674 hr
Lab note: write values as number then unit, every time.

Memo: O=C(O)C(F)(F)C(F)(F)C(F)(F)C(F)(F)C(F)(F)C(F)(F)C(F)(F)F [CXR1002] , reported concentration at 674 hr: 65.8 µM

----------
Experiment: Phase I study CXR1002-001: plasma pharmacokinetics (LC-MS/MS)
Assay type: in vivo, human
Conditions: human, plasma, oral, 950 mg, Patient 031, 950 mg, person, plasma, 340 hr; read-out: Concentration
Experimental readout: concentration at 340 h

Memo: O=C(O)C(F)(F)C(F)(F)C(F)(F)C(F)(F)C(F)(F)C(F)(F)C(F)(F)F , reported concentration at 340 h: 697 µM
